// values below are reported koff
# studySystem: B7-H4 purified monomeric recombinant human protein (Homo sapiens, UniProt Q7Z7D3)
# Sequence (Q7Z7D3 25-259): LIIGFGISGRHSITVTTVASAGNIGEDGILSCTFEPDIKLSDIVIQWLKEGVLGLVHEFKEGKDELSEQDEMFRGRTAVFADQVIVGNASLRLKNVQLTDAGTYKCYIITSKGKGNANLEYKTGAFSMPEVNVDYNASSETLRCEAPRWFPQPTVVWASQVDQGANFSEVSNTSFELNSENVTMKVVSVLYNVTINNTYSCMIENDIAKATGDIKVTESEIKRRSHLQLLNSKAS
# experimentSummary: SPR
metricName: koff

- A10 (scFv, V domains shown) VH: EVQLVESGGGVVQPGRSLRLSCAASGFTFSSRSMNWVRQAPGKGLEWVSAISGTGYTTYYADSVKGRFTISRDNSKNTLYLQMNSLRAEDTAVYYCARKRWYGMDVWGQGTTVTVSS VL: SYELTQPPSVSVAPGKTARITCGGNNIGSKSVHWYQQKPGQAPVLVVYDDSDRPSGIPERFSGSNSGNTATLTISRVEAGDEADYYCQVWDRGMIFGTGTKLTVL: 1.4e-05 s⁻¹
- B10 (scFv, V domains shown) VH: EVQLVESGGGVVQPGRSLRLSCAASGFTFSTRAMNWVRQAPGKGLEWVSAISGTGDTTYYADSVKGRFTISRDNSKNTLYLQMNSLRAEDTAVYYCARKRWYGMDVWGQGTTVTVSS VL: SYELTQPPSVSVAPGKTARITCGGNNIGSKSVHWYQQKPGQAPVLVVYDDSDRPSGIPERFSGSNSGNTATLTISRVEAGDEADYYCQVWGRYQMIFGTGTKLTVL: 2.9e-05 s⁻¹
- A11 (scFv, V domains shown) VH: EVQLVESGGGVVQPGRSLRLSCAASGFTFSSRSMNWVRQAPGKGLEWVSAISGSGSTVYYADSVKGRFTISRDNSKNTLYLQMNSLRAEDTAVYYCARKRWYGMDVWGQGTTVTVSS VL: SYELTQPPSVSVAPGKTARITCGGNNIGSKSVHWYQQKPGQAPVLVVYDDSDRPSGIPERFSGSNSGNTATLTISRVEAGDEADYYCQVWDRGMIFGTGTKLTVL: 1.1e-05 s⁻¹
